# credit: patent US7435747B2

SYSTEM_TESTED: human factor Xa (Homo sapiens, UniProt P00742)
Construct: 25 μl human factor Xa (Enzyme Research Laboratories, Inc; South Bend, Ind.); purchased Enzyme Research Laboratories, Inc; South Bend, Ind
Sequence (P00742 235-488 limits assumed): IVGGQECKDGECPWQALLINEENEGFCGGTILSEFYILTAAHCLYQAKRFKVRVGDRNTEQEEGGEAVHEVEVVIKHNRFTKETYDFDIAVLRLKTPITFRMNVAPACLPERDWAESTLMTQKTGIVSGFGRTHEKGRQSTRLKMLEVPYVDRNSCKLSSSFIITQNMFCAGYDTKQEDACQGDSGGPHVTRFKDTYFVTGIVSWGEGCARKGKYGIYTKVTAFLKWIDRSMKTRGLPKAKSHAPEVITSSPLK
Sequence (P00742 41-179 partner limits assumed): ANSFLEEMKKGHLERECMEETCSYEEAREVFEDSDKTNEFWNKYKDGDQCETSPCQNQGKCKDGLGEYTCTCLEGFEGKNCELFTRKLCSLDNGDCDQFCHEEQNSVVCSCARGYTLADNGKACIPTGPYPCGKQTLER
ASSAY_OVERVIEW: Factor Xa chromogenic assay (substrate S-2765)
Format: biochemical
EXPERIMENTAL_CONTEXT: Ki calculated from IC50 corrected for substrate competition; 25° C., 0.5 nM enzyme, 140 μM substrate S-2765; read-out: Ki(FXa), inhibition constant for inhibition of factor Xa
READOUT_KIND: Ki (nM)
The reply should contain only the number, in nM.

Data request: For the compound Cc1ccc(C(=O)NCC2CCN(C(=N)N)CC2)cc1OCCc1ccc(Cl)cc1Cl [Example 13] , give its reported Ki.
Data returned: 173

Further cases:
Data request: For the compound CC(=N)N1CCC(CNC(=O)c2ccc(C)c(OCCc3ccc(Cl)cc3Cl)c2)CC1 [Example 12] , give its reported Ki.
Data returned: 140
